- SYSTEM_NAME: specific IgE contained in the sera of 7 patients allergic to birch and apple
- TEST: ELISA inhibition, 7 sera pre-incubated with 1.25 µg/ml inhibitor; competitor: wt Bet v 1 adsorbed on wells
We begin with a simple list: items and their reported mean % inhibition of Bet v 1-IgE binding (7 sera).
PARAMETER: mean % inhibition of Bet v 1-IgE binding (7 sera) (%)

>  <BINDER>
wild-type Bet v 1-Mal d 1 hybrid molecule (SEQ ID NO: 3) (protein) HHHHHHGVFNYETETTSVIPAARLFKAFILDGDNLFPKVAPQAISSVENIEGNGGPGTIKKISFPEGFPFKYVKDRVDEVDHTNFKYNYSVIEGGPIGDTLEKISNEIKIVATPDGGSILKINNKYHTKGDHEVKAEQIKASKEMGETLLRAVESYLLAHSDAYNEFGVYTFENEFTSEIPPSRLFKAFVLDADNLIPKIAPQAIKQAEILEGDGGPGTIKKITFGEGSQYGYVKHKIDSVDEANYSYAYTLIEGDALTDTIEKVSYETKLVASGSGSIIKSISHYHTKGDVEIKEEHVKAGKEKAHGLFKLIESYLKGHPDAYN

>  <OBSERVED_VALUE>
63.3

$$$$
>  <BINDER>
mutant Bet v 1-Mal d 1 hybrid molecule (SEQ ID NO: 4) (protein) HHHHHHGVFNYETETTSVIPAARLFKAFILDGDNLFPKVAPQAISSVENIEGNGGPGTIAKISFPEGFPFKYVKDRVDEVDHTNFKYNYSVIEGGPIGDTLEKISNEIKIVATPDGGSILAINNKYHTAGDHEVKAEQIKASKEMGETLLRAVESYLLAHSDAYNEFGVYTFENEFTSEIPPSRLFKAFVLAADNLIPKIAPQAIKQAEILEGDGGPGTIKKITFGEGSQYGYVKHKIDSVDEAAYSYAYTLIEGDALTDTIEKVSYETKLVASGSGSIIKSISHYHTKGDVEIKEEHVKAGKEKAHGLFKLIESYLKGHPDAYN

>  <OBSERVED_VALUE>
32.1

$$$$
>  <BINDER>
mixture of the single wt allergens (wt Bet v 1 and wt Mal d 1) (protein) chain 1: HHHHHHGVFNYETETTSVIPAARLFKAFILDGDNLFPKVAPQAISSVENIEGNGGPGTIKKISFPEGFPFKYVKDRVDEVDHTNFKYNYSVIEGGPIGDTLEKISNEIKIVATPDGGSILKINNKYHTKGDHEVKAEQIKASKEMGETLLRAVESYLLAHSDAYN chain 2: HHHHHHGVYTFENEFTSEIPPSRLFKAFVLDADNLIPKIAPQAIKQAEILEGDGGPGTIKKITFGEGSQYGYVKHKIDSVDEANYSYAYTLIEGDALTDTIEKVSYETKLVASGSGSIIKSISHYHTKGDVEIKEEHVKAGKEKAHGLFKLIESYLKGHPDAYN

>  <OBSERVED_VALUE>
79.9

$$$$
